// data source = PubChem BioAssay (NCI)

# System: MDA-MB-231 breast
# MEASUREMENT DESCRIPTION: NCI-60 one-dose screen, 48 h (100 = growth as untreated, 0 = no growth, -100 = all killed)
# EXPERIMENTAL CONDITIONS: 10 µM unless noted
The panel holds about 83,000 compounds, 20% with a hit somewhere; the sample as a whole holds those more often. Activity calls are given as the source filed them. How the source made its calls: active means growth percent below 10; inactive means the rest.
compounds and their reported growth

Field growth (system: MDA-MB-231 breast) for entry CCOC(=O)c1nn(-c2ccc(C)cc2)c(=O)c2c(N)c(C#N)c(-c3ccc(OC)cc3)cc12 = 84.8% (inactive)

Field growth (system: MDA-MB-231 breast) for entry O=S(=O)(NC1CC2CCC1C2)c1ccc2c(c1)C(=NO)c1cc(S(=O)(=O)NC3CC4CCC3C4)ccc1-2 (centres undefined) = -21.9% (active)

Field growth (system: MDA-MB-231 breast) for entry NS(=O)(=O)c1ccc(Nc2nc(N/N=C/c3ccc([N+](=O)[O-])cc3)nc(Nc3ccccc3)n2)cc1 = 45.8% (inactive)

Field growth (system: MDA-MB-231 breast) for entry Oc1ccc(CSc2nnc(-c3ccc(Oc4ccccc4)cc3)o2)c2cccnc12 = 45.5% (inactive)

Field growth (system: MDA-MB-231 breast) for entry O=C1c2cc(Br)ccc2-n2c1nc1cc(Br)ccc1c2=O = 75.5% (inactive)

Field growth (system: MDA-MB-231 breast) for entry COc1ccc([C@@H]2[C@@H](O)C(=O)N2c2cc(OC)c(OC)c(OC)c2)cc1 = 30.4% (inactive)

----------
compounds and their reported growth
# Test system: SR leukemia
# MEASUREMENT DESCRIPTION: NCI-60 one-dose screen, 48 h (100 = growth as untreated, 0 = no growth, -100 = all killed)
# EXPERIMENTAL CONDITIONS: 10 µM unless noted
Compounds without any hit were thinned out: in the full panel of roughly 83,000, 20% have a hit.
Report only the number, with the unit % understood.

Reference set, count: 2
>>> obs_value("O=C(COc1cccc2cccnc12)Nc1ccc(C(=O)/C=C/c2ccc(Cl)cc2)cc1")
61.1
>>> obs_value("O=C(/C=C1\\C=CN(CCCCO)c2ccccc21)n1ccc2ccccc21")
123

Just so you know, measured growth for COc1ccc(Oc2ccc(C3CC(c4cc(OC)c(OC)c(OC)c4)=NN3C(C)=O)cc2)cc1 (centres undefined) came out at 35.7

Just so you know, measured growth for COc1cc2cc(Oc3ccc(NC(=O)Nc4cccc(C(F)(F)F)c4)cc3)c(C)nc2cc1OCCN(C)C came out at 26.1

Just so you know, measured growth for CC1=CC(=O)CC(C)(C)[C@@]1(O)/C=C/C(C)=C\C(=O)O came out at 0.555

Just so you know, measured growth for CCNC(=O)Oc1ccc(/C(=C(/C)c2ccc(Cl)cc2)c2ccc(OCCN(C)C)cc2)cc1 came out at 42.4

Just so you know, measured growth for Cc1nn(-c2ccc(Cl)cc2)c(C)c1N=Nc1ccc2oc(=O)ccc2c1 came out at 67.1

Just so you know, measured growth for COC(=O)Nc1ccc(-c2nc(-c3cccc(O)c3)c(-c3ccnc(Br)c3)[nH]2)cc1 came out at 32.7

Just so you know, measured growth for Cc1ccc(S(=O)(=O)N/N=C/c2cn(-c3ccc(F)cc3)nc2-c2ccc(S(C)(=O)=O)cc2)cc1 came out at 107
